- system_name: GSK3B (Homo sapiens, UniProt P49841)
- Sequence (P49841 whole entry): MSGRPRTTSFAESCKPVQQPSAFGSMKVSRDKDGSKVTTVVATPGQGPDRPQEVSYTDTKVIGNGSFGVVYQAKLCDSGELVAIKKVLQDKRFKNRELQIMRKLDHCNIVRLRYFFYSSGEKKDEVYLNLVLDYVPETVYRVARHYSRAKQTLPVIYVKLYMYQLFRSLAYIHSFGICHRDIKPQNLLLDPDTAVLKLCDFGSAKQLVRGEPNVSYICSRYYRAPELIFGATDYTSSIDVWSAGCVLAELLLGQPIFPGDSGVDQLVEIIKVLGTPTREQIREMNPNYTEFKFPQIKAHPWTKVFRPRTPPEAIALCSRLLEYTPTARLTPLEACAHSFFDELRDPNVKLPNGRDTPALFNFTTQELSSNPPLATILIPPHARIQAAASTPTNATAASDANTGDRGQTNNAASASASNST
- test_summary: NanoBRET cellular target engagement assay, Nanoluc-GSK3B in HEK293 cells
- Type: cell-based
- Parameters: expressed in transfected cells
- condition_info: NanoBRET GSK3β IC50, HEK293 cells, tracer K-8, 2 hours, 37° C
Measured IC50 by item

compound: CCNCc1cncc(NC(=O)c2c(N)ncn(-c3c(Cl)cc(OC)cc3Cl)c2=O)c1
IC50: 271 nM

compound: CCC(N)c1cncc(NC(=O)c2c(N)ncn(-c3c(C)cc(C(F)F)cc3C)c2=O)c1 (single isomer, unassigned)
IC50: 546 nM

compound: COCc1cc(C)c(-n2cnc(N)c(C(=O)Nc3cncc([C@H]4CC[C@H](C)N4)c3)c2=O)c(C)c1 (single isomer, unassigned)
IC50: 532 nM

The measured IC50 associated with COC[C@H](N)c1cncc(NC(=O)c2c(N)ncn(-c3c(Cl)cc(OC(F)F)cc3Cl)c2=O)c1 (single isomer, unassigned) reads 174 nM
